- test-name: recombinant UMI read abundance after kanamycin selection (control-corrected) (log10(CPM+1)); higher = more efficient recombination; extreme values may be limits of the assay; sequences stand for … in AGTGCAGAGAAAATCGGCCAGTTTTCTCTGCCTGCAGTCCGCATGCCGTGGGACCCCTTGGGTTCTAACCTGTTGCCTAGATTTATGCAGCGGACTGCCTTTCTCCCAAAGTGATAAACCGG…AGGTTGGTTTCACT; site = the 11-nt donor;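 further: IS621 bridge recombinase in Escherichia coli cells against a fixed T5 target plasmid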
Everything with recombinant UMI read abundance (log10) lower than 0.9 is no; everything else, including exactly 0.9, is yes.

# example entries with known answers
GTGGATGCATGGACCGGTTTTCCCGGTAATCCGTATTTGGT (site GTGGATGCTAC) : yes
TGTTGCCCATGGACCGGTTTTCCCGGTAATCCGTATTTGTA (site TGTTACCCTTA) : no
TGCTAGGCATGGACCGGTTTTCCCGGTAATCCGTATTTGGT (site TGCTAGACTAC) : no
TTACAATCATGGACCGGTTTTCCCGGTAATCCGTATTTGGG (site TTACAATCTCC) : no
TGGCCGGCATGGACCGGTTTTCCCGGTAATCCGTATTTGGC (site TGGCCGGCTGC) : no

Please turn your attention to the following entry.
[Q] Please tell me: is the sequence GGAGAGACATGGACCGGTTTTCCCGGTAATCCGTATTTGCC (site GGAGAGACTGG) at or over 0.9 in terms of recombinant UMI read abundance (log10)?
[A] no

These data points were gathered from the supplement of paper PMC11208160.
